System: TNK2
Conditions: concentration: 1 μM, replicates: in singlicate; n = 1
parameter: %Inh (%)
Unit % implied. Number only.

Worked cases, %Inh given:
compound: COc1cccc(-c2cc(-c3c[nH]nc3-c3ccccn3)ccn2)c1
target_system: TNK2
parameter: %Inh
unit_symbol: %
assay_value: 0

compound: COc1cc2ncn(-c3cc(OCC4CCCO4)c(C(N)=O)s3)c2cc1OC (stereo not shown)
target_system: TNK2
parameter: %Inh
unit_symbol: %
assay_value: 17

compound: Cn1cncc1-c1ccc2ncnc(Nc3ccc(OCc4ccccc4)cc3)c2c1
target_system: TNK2
parameter: %Inh
unit_symbol: %
assay_value: 29

compound: Cc1ccc(C(=O)Nc2ccc(Nc3ccnc4cc(-c5ccccn5)ccc34)cc2O)cc1.Cl
target_system: TNK2
parameter: %Inh
unit_symbol: %
assay_value: 95.3

compound: O=C(Nc1ccc2c(c1)OCO2)NC1CCN(c2ccnc(Nc3ccc(F)cc3)n2)C1 (stereo not shown)
target_system: TNK2
parameter: %Inh
unit_symbol: %
assay_value: 10

compound: Cc1ccc(NC(=O)Nc2cc(C(C)(C)C)nn2-c2ccccc2)cc1
target_system: TNK2
parameter: %Inh
unit_symbol: %
assay_value: 15

compound: O=C(Nc1ccccc1)Nc1cccc(Oc2ccc3nccn3n2)c1
target_system: TNK2
parameter: %Inh
unit_symbol: %
assay_value: 0

compound: NC(=O)c1nnc2ccccc2c1N
target_system: TNK2
parameter: %Inh
unit_symbol: %
assay_value: 0

compound: O=C(Nc1n[nH]c2nc(-c3nccs3)c(Br)cc12)C1CC1
target_system: TNK2
parameter: %Inh
unit_symbol: %
assay_value: 16

compound: Cc1ccc(-c2cc(-c3c[nH]nc3-c3ccccn3)ccn2)cc1
target_system: TNK2;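 note: KINOMEscan kinase panel screen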
parameter: %Inh
unit_symbol: %
assay_value: 12

# %Inh measured on TNK2 for item Clc1cc(Cl)cc(Nc2ccnc(Nc3cc(Cl)cc(Cl)c3)n2)c1 = 12

Reported %Inh (TNK2) for entry O=C(O)COc1ncnc2cc(-c3ccc4[nH]ncc4c3)sc12 is 0

Value sought: %Inh, system TNK2, item Cc1ccc(NC(=O)Nc2cccc(Cl)c2)cc1-c1ccc(C(=O)Nc2ccncc2)cc1 . Result: 12
